study.target: T1, RBFOX1 RRM RbFoxmut (Fox-RRM*) (Homo sapiens, UniProt Q9NWB1 109-208, R118D;E147R;N151S;E152T)
T1 sequence: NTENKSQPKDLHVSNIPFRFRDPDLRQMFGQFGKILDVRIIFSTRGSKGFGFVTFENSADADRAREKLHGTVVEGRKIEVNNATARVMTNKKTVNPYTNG
assay.text: EMSA; HiTS-Eq, 1 nM pool, 10 min; buffer printed only for the single-RNA assays: 10 mM Tris pH 7.5, 150 mM NaCl, 3.4 mM EDTA, 0.001% NP-40, 30 C
cond: tags: His6 N-terminal (pET28a); label: 5' 32P
In all, about 16,000 sequences were measured (“ka relative to ugcaugu”: median about 0.096, highest 2% from about 0.35 on). What follows is part of a selection rich in the highest values, with near analogues and random picks from the rest.
assay.metric: binding signal

Some entries whose results are on file:
In: Tell me the measured binding signal of UGGACAG (DNA:RNA) RNA: GGGAGACCGGAAUUCAGAUUGUCCUGGACAGUUAAAUCCCGUCGUAGCCACCA DNA 1: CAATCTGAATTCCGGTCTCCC DNA 2: TGGTGGCTACGACGGGATT , please.
Out: 0.0526 KA relative to UGCAUGU

In: Tell me the measured binding signal of UGCUACC (DNA:RNA) RNA: GGGAGACCGGAAUUCAGAUUGUCCUGCUACCUUAAAUCCCGUCGUAGCCACCA DNA 1: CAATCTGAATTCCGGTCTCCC DNA 2: TGGTGGCTACGACGGGATT , please.
Out: 0.147 KA relative to UGCAUGU

In: Tell me the measured binding signal of CAGAACG (DNA:RNA) RNA: GGGAGACCGGAAUUCAGAUUGUCCCAGAACGUUAAAUCCCGUCGUAGCCACCA DNA 1: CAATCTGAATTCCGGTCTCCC DNA 2: TGGTGGCTACGACGGGATT , please.
Out: 0.168 KA relative to UGCAUGU

In: Tell me the measured binding signal of UGGCCUC (DNA:RNA) RNA: GGGAGACCGGAAUUCAGAUUGUCCUGGCCUCUUAAAUCCCGUCGUAGCCACCA DNA 1: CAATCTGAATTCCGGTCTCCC DNA 2: TGGTGGCTACGACGGGATT , please.
Out: 0.106 KA relative to UGCAUGU

In: Tell me the measured binding signal of UCCCAGC (DNA:RNA) RNA: GGGAGACCGGAAUUCAGAUUGUCCUCCCAGCUUAAAUCCCGUCGUAGCCACCA DNA 1: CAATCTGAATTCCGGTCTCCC DNA 2: TGGTGGCTACGACGGGATT , please.
Out: 0.1 KA relative to UGCAUGU

In: Tell me the measured binding signal of UGCCUUG (DNA:RNA) RNA: GGGAGACCGGAAUUCAGAUUGUCCUGCCUUGUUAAAUCCCGUCGUAGCCACCA DNA 1: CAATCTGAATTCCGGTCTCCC DNA 2: TGGTGGCTACGACGGGATT , please.
Out: 1.27 KA relative to UGCAUGU

In: Tell me the measured binding signal of AACUUUG (DNA:RNA) RNA: GGGAGACCGGAAUUCAGAUUGUCCAACUUUGUUAAAUCCCGUCGUAGCCACCA DNA 1: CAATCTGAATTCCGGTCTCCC DNA 2: TGGTGGCTACGACGGGATT , please.
Out: 0.0853 KA relative to UGCAUGU

In: Tell me the measured binding signal of CCCAACC (DNA:RNA) RNA: GGGAGACCGGAAUUCAGAUUGUCCCCCAACCUUAAAUCCCGUCGUAGCCACCA DNA 1: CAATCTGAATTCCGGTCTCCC DNA 2: TGGTGGCTACGACGGGATT , please.
Out: 0.0535 KA relative to UGCAUGU

In: Tell me the measured binding signal of UCUAAUU (DNA:RNA) RNA: GGGAGACCGGAAUUCAGAUUGUCCUCUAAUUUUAAAUCCCGUCGUAGCCACCA DNA 1: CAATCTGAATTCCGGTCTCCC DNA 2: TGGTGGCTACGACGGGATT , please.
Out: 0.0829 KA relative to UGCAUGU

Now consider a different binder.
In: Tell me the measured binding signal of UGUGGCC (DNA:RNA) RNA: GGGAGACCGGAAUUCAGAUUGUCCUGUGGCCUUAAAUCCCGUCGUAGCCACCA DNA 1: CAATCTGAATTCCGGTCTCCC DNA 2: TGGTGGCTACGACGGGATT , please.
Out: 0.263 KA relative to UGCAUGU

Every entry's value here was drawn from paper PMC9911399.
